# Assay info: Tissue distribution of radioactivity in rats after intravenous administration
# Type: in vivo
# Measurement conditions: rat, thyroid, iv, 2 h, read-out: Distribution of radioactivity, Thyroid
# Procedure: In Table I, the tissue distribution of radioactivity in rats after intravenous administration of a bovine serium-albumin complex of the 15-(p-[^125 I]-iodophenyl)-6-Tellurapentadecanoic acid is summarized for various time periods from 5 minutes to 5 days.
Quantity: tissue uptake at 2 h (%ID/g)
Give bare numbers, in %ID/g.

stdin: Name the recorded tissue uptake at 2 h of the compound listed here: O=C(O)CCCC[Te]CCCCCCCCCc1ccc([125I])cc1
stdout: 3.51

---

# Assay info: Tissue distribution of radioactivity in rats after intravenous administration
# Format: in vivo
# Measurement conditions: rat, lungs, iv, 5 d, read-out: Distribution of radioactivity, Lungs
# Experimental: In Table I, the tissue distribution of radioactivity in rats after intravenous administration of a bovine serium-albumin complex of the 15-(p-[^125 I]-iodophenyl)-6-Tellurapentadecanoic acid is summarized for various time periods from 5 minutes to 5 days.
Quantity: tissue uptake at 120 h (%ID/g)
Give bare numbers, in %ID/g.

stdin: Name the recorded tissue uptake at 120 h of the molecule listed here: O=C(O)CCCC[Te]CCCCCCCCCc1ccc([125I])cc1
stdout: 0.33
